experiment: Maximum reaction speed by Photo Differential Scanning Calorimetry (Photo-DSC); conditions: yne monomer with TMPMP and 5 wt.-% photoinitiator mixture (comparatives without thiol); 1 W/cm^2, 50° C., nitrogen
# label = Condition met if tmax (time for reaching the maximum reaction enthalpy) < 2 s else Condition not met

query: # TODO verify tmax (time for reaching the maximum reaction enthalpy) < 2 s strictly for this molecule: C=CC(=O)OCCCCOC(=O)C=C [1,4-butanediol diacrylate, reference compound]
result: Condition met

query: Lab note: confirm whether the reported tmax (time for reaching the maximum reaction enthalpy) for this molecule is below 2 s, equality not counting. molecule: C#CCOCCCCOCC#C [1,4-butanediol dipropargyl ether]
result: Condition not met

query: Regarding CCC#COCCCCOC#CCC [1,4-butanediol dibut-1-ynyl ether] , kindly confirm whether its tmax (time for reaching the maximum reaction enthalpy) is beneath 2 s.
result: Condition not met

query: I'd appreciate it if you could check whether CCC#COCCOC(COCC)OC#CCC (stereo not drawn) [1,4-triethyleneglycol dibut-1-ynyl ether] has tmax (time for reaching the maximum reaction enthalpy) smaller than 2 s.
result: Condition not met

query: Is tmax (time for reaching the maximum reaction enthalpy) of `C#CCOC(=O)OCC(CC)(COC(=O)OCC#C)COC(=O)OCC#C` strictly below 2 s?
result: Condition met

query: For C=C(C)C(=O)OCCCCOC(=O)C(=C)C [1,4-butanediol dimethacrylate, reference compound] , is the recorded tmax (time for reaching the maximum reaction enthalpy) below the cut-off of 2 s?
result: Condition not met
